Where do the numbers come from? From patent US12344588B2.

Assay: Solubility test
Assay type: physicochemical
Conditions: water, 37 °C, thermodynamic from solid
measure: solubility at 2 h (µg/mL)
Answers are plain numbers, in µg/mL.

Exercise: So what does the record say about solubility at 2 h for Cc1ccc(F)c([C@@H](C)[C@H](NS(=O)(=O)c2ccc(Cl)cc2C(N)=O)c2n[nH]c(=O)o2)c1C ?
Solution: 230

---

Test: Solubility test
Assay type: physicochemical
Settings: 50 mM acetate buffer, 37 °C, pH 4, aqueous buffer, thermodynamic from solid, Acetate buffer (50 mM, pH 4.0)
measure: solubility at 2 h (µg/mL)
Numbers only, in µg/mL.

Exercise: So what does the record say about solubility at 2 h for Cc1ccc(F)c([C@@H](C)[C@H](NS(=O)(=O)c2ccc(Cl)cc2C(N)=O)c2n[nH]c(=O)o2)c1C ?
Solution: 250

---

Test: Solubility test
Format: physicochemical
Conditions: First fluid for dissolution test, 37 °C, pH 1.2, simulated gastric fluid, thermodynamic from solid, pH 1.2, 37° C.
measure: solubility at 2 h (µg/mL)
One number for each entry, in µg/mL.

Exercise: So what does the record say about solubility at 2 h for Cc1ccc(F)c([C@@H](C)[C@H](NS(=O)(=O)c2ccc(Cl)cc2C(N)=O)c2n[nH]c(=O)o2)c1C ?
Solution: 230

---

Assay: Solubility test
Assay type: physicochemical
Settings: 0.5% HPMC, 37 °C, aqueous with cosolvent or surfactant or cyclodextrin, thermodynamic from solid
measure: solubility at 2 h (µg/mL)
Answers are plain numbers, in µg/mL.

Exercise: So what does the record say about solubility at 2 h for Cc1ccc(F)c([C@@H](C)[C@H](NS(=O)(=O)c2ccc(Cl)cc2C(N)=O)c2n[nH]c(=O)o2)c1C ?
Solution: 190
